# procedure summary: Microsomal assays, rat liver microsomes
# experimental setup: rat liver microsomes
For each entry below, report its Microsomal stability assays: Species/Half-life (hr) Rat value.

Ask | Report Microsomal stability assays: Species/Half-life (hr) Rat for CC(Cc1ccc([N+](=O)[O-])cc1)NCCCc1ccc(Br)cc1 (stereo not shown) [Compound 121]
Reply | 0.1 h

Ask | Please indicate Microsomal stability assays: Species/Half-life (hr) Rat recorded for CC(Cc1ccc(F)cc1)NCCCc1ccccc1 (stereo not shown) [Compound 126]
Reply | 0.1 h

Ask | Tell me measured Microsomal stability assays: Species/Half-life (hr) Rat for CC(Cc1ccc(F)cc1)NCCCc1ccc2[nH]ccc2c1 (stereo not shown) [Compound 56] please.
Reply | 0.1 h

Ask | Provide one value: measured Microsomal stability assays: Species/Half-life (hr) Rat of O=[N+]([O-])c1ccc(CCCNC(CF)Cc2ccc(F)cc2)cc1 (stereo not shown) [Compound 123]
Reply | 0.4 h

Ask | Entry FCC(Cc1ccccc1)NCCCc1ccccc1 (stereo not shown) [Compound 98] needs its Microsomal stability assays: Species/Half-life (hr) Rat filled in; supply it.
Reply | 0.1 h

Ask | Specify reported Microsomal stability assays: Species/Half-life (hr) Rat for the molecule shown: CC(C)C(Cc1ccc(F)cc1)NCCCc1ccc(Br)cc1 (stereo not shown) [Compound 140]
Reply | 0.1 h

Ask | Hello, please tell me recorded Microsomal stability assays: Species/Half-life (hr) Rat for this one: COc1ccc(CCCNC(C)Cc2ccncc2)cc1 (stereo not shown) [Compound 172]
Reply | 0.1 h

Ask | Report Microsomal stability assays: Species/Half-life (hr) Rat for CC(Cc1ccc(C(F)(F)F)cc1)NCCCc1ccc(O)cc1 (stereo not shown) [Compound 209]
Reply | 0.2 h

Ask | Name the recorded Microsomal stability assays: Species/Half-life (hr) Rat of the molecule listed here: CC(Cc1ccc(F)cc1)NCCCc1c[nH]c2ccccc12 (stereo not shown) [Compound 91]
Reply | 0.1 h
